The measured values listed here are drawn from ChEMBL document CHEMBL4028877.

molecular target: Oxytocin receptor (Mus musculus, UniProt P97926); assay: Agonist activity at recombinant mouse OTR expressed in CHO-K1 cells assessed as induction of Ca2+ mobilization after overnight incubation by FLIPR assay; type: functional, cell-based
Sequence (P97926 whole entry): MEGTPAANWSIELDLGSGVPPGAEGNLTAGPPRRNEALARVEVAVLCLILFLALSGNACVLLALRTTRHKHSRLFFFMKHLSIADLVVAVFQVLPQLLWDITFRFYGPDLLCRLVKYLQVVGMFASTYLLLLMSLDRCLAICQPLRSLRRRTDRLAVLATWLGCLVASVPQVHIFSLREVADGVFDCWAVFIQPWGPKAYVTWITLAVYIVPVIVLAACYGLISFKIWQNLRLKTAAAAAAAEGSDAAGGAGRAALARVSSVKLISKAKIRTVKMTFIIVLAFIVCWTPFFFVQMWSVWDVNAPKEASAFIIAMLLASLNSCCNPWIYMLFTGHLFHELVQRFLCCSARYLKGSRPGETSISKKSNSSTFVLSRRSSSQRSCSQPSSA
value type: EC50 (nM)
Numbers only; they are read as nM.

Suppose we examine the molecule Cc1cc(C(=O)N2Cc3cnn(C)c3Nc3ccccc32)ccc1CNC(=O)N1CCN(Cc2cc(O)cc(O)c2)CC1 ; what EC50 value has been reported?
29

---

target: Oxytocin receptor (Mus musculus, UniProt P97926); assay: Displacement of [Tyrosyl-2,6-3H]Oxytocin from recombinant mouse OTR expressed in CHO-K1 cells after 180 mins by liquid scintillation counting method
value type: Ki (nM)
Kindly provide the numeric value in nM only, without the unit symbol.

Would you mind telling me what Ki value was observed for Cc1cc(C(=O)N2Cc3cnn(C)c3Nc3ccccc32)ccc1CNC(=O)N1CCN(Cc2cc(O)cc(O)c2)CC1 ?
51.6
